# assayDetails: NCI Yeast Anticancer Drug Screen. Data for the bub3 strain (AID 167)
# conditionDetails: S. cerevisiae bub3 mutant strain, at 50.0 µM (retest, dose inferred, filed as 5.0), hits give high values
This is part of a sample that, as a whole, favours compounds with a hit. Of some 79,000 tested, about 15% had one in any assay.
Output Y for growth inhibition not less than 40%; output N otherwise.

Determine whether this molecule has growth inhibition no lower than 40%: O=C1C=CC(=O)c2c(O)c(N3CCN(CCO)CC3)c(Cl)c(O)c21
Y

Does the molecule COc1cc(C(c2cc3c(cc2O)OCO3)N2CCCCC2)cc(OC)c1OC (configuration not stated) have recorded growth inhibition that is 40% or more?
N

Textbook exercise: given the entry Cc1cc(Cl)ccc1OCC(=O)Oc1c(Cl)c(Cl)c(Cl)c(Cl)c1Cl , state whether its growth inhibition is greater than or equal to 40%.
N

Please indicate if the recorded growth inhibition for O=C(c1ccccc1)c1ccccc1S(=O)(=O)Nc1ccccc1 meets or exceeds 40%.
Y

Does growth inhibition meet or surpass 40% for Cc1cccc2c1C1OC(=O)C3CCC=C2C31 (configuration not stated) ?
N

Kindly determine if growth inhibition recorded for CCCCCN(CCCCC)CC(O)c1cc2ccccc2c2ccccc12 (configuration not stated) is above or exactly 40%.
Y

# bool: growth inhibition of CC(=O)c1ccc(Br)cc1NC1=CC(=O)c2ncccc2C1=O >= 40%
Y

Is the recorded value of growth inhibition equal to or greater than 40% for this molecule? CC(/C=C/c1cccs1)=N\C(=S)NC(N)=S
Y

Is reported growth inhibition greater than or equal to 40% here: CCOC(=O)/C=C(\C)OCC
N

In plain terms: is recorded growth inhibition at least 40% for COc1ccc(C(=O)CC2(O)C(=O)N(C)c3c(Cl)cc(Cl)cc32)cc1 (configuration not stated) ?
Y

Please tell me: is the molecule O=[N+]([O-])c1cc(Cl)c(Cl)cc1NS(=O)(=O)c1ccccc1 at or over 40% in terms of growth inhibition?
Y

* * *

# assayDetails: NCI Yeast Anticancer Drug Screen. Data for the bub3 strain (AID 167)
# conditionDetails: S. cerevisiae bub3 mutant strain, at 50.0 µM, hits give high values
Compounds without any hit were thinned out: in the full panel of roughly 79,000, 15% have a hit.
Rule: satisfied for growth inhibition not less than 60%, not satisfied for anything less.

Check the entry CC(C)OC(=O)c1ccc(NCC2=CC(=O)C=CC2=O)cc1Cl : does growth inhibition equal or exceed 60%?
satisfied

Reported growth inhibition at or above 60%? CCCc1cc(=O)oc2c3c(c4c(c12)OC(C)(C)CC4)O[C@H](C)[C@@H](C)[C@H]3O
satisfied

Can CNc1ccc2c(c1)c1ccccc1n2C be said to have growth inhibition at or above 60%?
satisfied

Decide: growth inhibition of O=S(=O)(O)c1ccc(O)c2cc(Nc3ccccc3)ccc12 >= 60%?
not satisfied

Please indicate if the recorded growth inhibition for CSC(=S)NNC(C)c1nccc2ccccc12 (stereo not given) meets or exceeds 60%.
satisfied

Check if growth inhibition >= 60% (inclusive). Item: CN(C)c1ccc(N=Nc2cccc3ccccc23)cc1
not satisfied

Entry O=C1CSC(c2cccc([N+](=O)[O-])c2)N1c1ccc(-c2ccc(-n3c(-c4ccccc4)nc4ccccc4c3=O)cc2)cc1 (stereo not given) : is its growth inhibition no less than 60%?
satisfied

Evaluate Cc1c(CCl)c(=O)oc2c(C)c3occ(CCl)c(=O)c3cc12 : growth inhibition at minimum 60%?
satisfied

Can CCOC(=S)SCc1nc2ccccc2[nH]1 be said to have growth inhibition at or above 60%?
satisfied

Entry CCC[CH2][Sn]([CH2]CCC)([O]C(=O)c1c(F)cccc1F)[O]C(=O)c1c(F)cccc1F : is its growth inhibition no less than 60%?
satisfied

hey, is growth inhibition for this one >= 60%? C[n+]1c(-c2ccc(/C=C/C=N\NC(=O)c3ccc(C(=O)N/N=C\C=C\c4ccc(-c5cn6ccccc6[n+]5C)cc4)cc3)cc2)cn2ccccc21
satisfied

State whether the measured growth inhibition reaches 60%, counting equality as reaching it, for O=C(/C=C\c1cc(Br)ccc1O)/C=C/c1cc(Br)ccc1O
satisfied

hey, is growth inhibition for this one >= 60%? CC(=O)Nc1ccc(/S(=N\S(=O)(=O)c2ccc(C)cc2)c2ccc(NC(C)=O)cn2)cc1 (stereo not given)
not satisfied

Please check the record O=C1C2=Cc3ccccc3CCN2c2ccccc21 and state if its growth inhibition is at or above 60%.
satisfied

Kindly determine if growth inhibition recorded for CC(C)C(NC(=O)/C=C\c1ccccc1)C(=O)O (stereo not given) is above or exactly 60%.
satisfied

Has CCCCCCCCCC(=O)NN=C(C)C a recorded growth inhibition greater than or equal to 60%?
satisfied

growth inhibition >= 60% for COc1ccccc1/C=C1\S/C(=N/Nc2nc(C)c(C(C)=O)s2)NC1=O ?
not satisfied

Does the reported growth inhibition for Oc1ccc2ccc3ccccc3c2c1 fall at or above the 60% mark?
satisfied

# check: growth inhibition of CCCOc1ccc(-c2nc(-c3ccc(N=Cc4ccc(N(CCOS(C)(=O)=O)CCOS(C)(=O)=O)cc4C)cc3)cs2)cc1 is greater than or equal to 60%
not satisfied

Is it the case that COC(=O)C([NH-])c1ccccc1.COC(=O)C([NH-])c1ccccc1.[Cl][Pt+2][Cl] (stereo not given) has growth inhibition reaching or exceeding 60%?
not satisfied

For this molecule, is measured growth inhibition 60% or higher? CCN(CC)CC(C)(C)C(=O)/C=C/c1ccc(Cl)c(Cl)c1
satisfied

Does O=c1[nH]c2c([N+](=O)[O-])cc(Cl)cc2nc1/C=C(\O)c1ccccc1 have a reported growth inhibition of at least 60%?
not satisfied

Record C=C(C)C(=O)OC1CC2=CC(CC3(C)OC3C3OC(=O)C(=C)C13)OC2=O (stereo not given) ; criterion: growth inhibition no lower than 60%. Met?
satisfied

Does C=C(Cl)C(=NC(C)(C)C)Nc1ccccc1C have a reported growth inhibition of at least 60%?
satisfied

For this molecule, is measured growth inhibition 60% or higher? CN(C)CC1CCC/C(=C\c2ccc(Cl)cc2)C1=O (stereo not given)
satisfied

Does the reported growth inhibition for O=C1C=CC(=O)N1c1cccc(F)c1 fall at or above the 60% mark?
satisfied

Is it the case that CCCCCCN(CCCCCC)CC(O)c1cc(-c2ccccc2)nc2c(O)cccc12 (stereo not given) has growth inhibition reaching or exceeding 60%?
not satisfied

Tell me whether growth inhibition is at least 60% here: COc1ccc(C2C3=C(CCC(CN(C)C)C3=O)OC3=C2C(=O)C(CN(C)C)CC3)cc1 (stereo not given)
not satisfied

Hi, just wondering whether Cc1ccc2c(c1)C1(C)C=C(CN3CCN(C)CC3)C(=O)CC1O2 (stereo not given) shows growth inhibition of 60% or higher.
satisfied

Threshold query (growth inhibition >= 60%) on Cc1cccc2c1C1OC(=O)C3CCC=C2C31 (stereo not given)
not satisfied

Confirm if growth inhibition reported for the molecule N#C/C(=C\c1c(Cl)cccc1Cl)c1ccccc1 is 60% or above.
not satisfied

Please tell me: is the molecule COC(=O)c1nc2ccc([N+](=O)[O-])cc2n1O at or over 60% in terms of growth inhibition?
not satisfied

Form field: growth inhibition at least 60%? Entry: COc1ccc(C2SCC(=O)N2c2nncs2)cc1 (stereo not given)
not satisfied

# bool: growth inhibition of C[n+]1c(/C=C/c2ccc([N+](=O)[O-])cc2)ccc2ccccc21 >= 60%
not satisfied

Can N=C(N)c1ccc(Nc2ccc(-c3cc4ccc(C(=N)N)cc4[nH]3)cc2)cc1 be said to have growth inhibition at or above 60%?
satisfied

Kindly determine if growth inhibition recorded for CC(C)SCC1CO1 (stereo not given) is above or exactly 60%.
not satisfied

Please check the record O=C1CCCC/C1=C(\Br)I and state if its growth inhibition is at or above 60%.
satisfied

Assess whether reported growth inhibition for CCCCCCCCCCCCCCCCCCOP(=O)([O-])OC1CC[N+](C)(C)CC1 sits at 60% or higher.
satisfied

Exam item: decide whether the reported growth inhibition for O=C1SCCN1/N=C/c1ccc([N+](=O)[O-])o1 is at least 60%.
satisfied

Hi, just wondering whether CC1(COc2ccccc2OCC2(C)CO2)CO1 (stereo not given) shows growth inhibition of 60% or higher.
not satisfied

Is growth inhibition for CC(C)(C)CC(C)(C)c1ccc(OCCSC(=N)N)cc1 at or above 60%?
satisfied

Item CC(C)(CN1CCCCC1)C(=O)/C=C/c1ccc(Cl)c(Cl)c1 with growth inhibition of 60% or above?
satisfied

* * *

# assayDetails: NCI Yeast Anticancer Drug Screen. Data for the sgs1 mgt1 strain (AID 161);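 further: 0% = growth of cultures given vehicle only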
# conditionDetails: S. cerevisiae sgs1 mgt1 strain, at 50.0 µM, hits give high values
About 79,000 compounds went through this panel and 15% of them were active in at least one assay; those are over-represented in the sample as a whole.
Assign growth inhibition to each entry below.
The reply should contain only the number, in %.

The compound listed as CC(=O)OCC(=O)[C@@]1(O)[C@H](C)C[C@H]2[C@@H]3C=C(C)C4=Cc5c(cnn5-c5ccccc5)C[C@]4(C)[C@@]3(F)[C@@H](O)C[C@@]21C shows growth inhibition equal to 83.2

Form: compound = CC(C)(C)CC(C)(C)c1ccc(OCCSC(=N)N)cc1 ; growth inhibition = 99.2

response.value for O=C(Nc1cccc(Br)c1)Oc1cccc2cccnc12 (field: growth inhibition) = 85.3

Entry Cc1ccc(O)c2c(NCCCCCCNc3cc(C)[n+](C)c4c(C)ccc(O)c34)cc(C)[n+](C)c12 , growth inhibition reported as 92.7

growth inhibition reading for Cc1occc1C(=S)Nc1ccc(Cl)c(C(=O)OCC2CC2)c1 : 81.4

For this compound ( O=C1c2ccccc2C(c2ccccc2)(c2ccccc2)N1c1ccccc1 ), measured growth inhibition is 95.6

Documented growth inhibition of CCOC(=O)/C(Cl)=C(\OCC)C(=O)OCC : 20

The compound listed as Oc1ccccc1/C=N/NC(=S)NC12CC3CC(CC(C3)C1)C2 has a reported growth inhibition of 64.4

growth inhibition recorded for this compound, CCCCN(CCCC)Cc1cc(Nc2c3ccc(Cl)cc3nc3ccc(OC)cc23)ccc1O , is 75.4

Summary for this compound, CCCCSc1n[nH]c(=O)nc1SC : growth inhibition is 46.5
